# assay_info: plasma and brain exposure after single oral dose
# Format: in vivo, Male CD-1 Mice
# study_conditions: male, CD-1, mouse, brain, po, 50 mg/kg, PO 50 mg/kg (Group 4); 0 hr; BLQ = 0; read-out: Brain Concentrations, Mean
# Description: […] The concentration of Compound 76 was measured in plasma and in brain tissue homogenates. Plasma concentrations were measured in mice after oral administration. All doses were formulated in purified water. Four groups of male CD-1 mice were dosed after an overnight fast and fed 4 hours post-dose. Dosing was as follows: Protein was precipitated with 0.25 mL acetonitrile for plasma, 0.25 mL for brain. […] The limit of quantitation was 1 ng/mL using a 50 μL aliquot for plasma and a 504 aliquot for brain. […]
measured_metric: concentration at 0 h (ng/g)

INSERT INTO assay_data (compound, measured_metric, measured_value) VALUES
  ('O=C(Cc1ccc(-c2ccc(N3CCOCC3)cc2)cn1)NCc1cccc(F)c1 [Compound 76]', 'concentration at 0 h', 0);

* * *

# assay_info: plasma and brain exposure after single oral dose
# Format: in vivo, Male CD-1 Mice
# study_conditions: male, CD-1, mouse; Plasma; single oral dose of 10 mg/kg
measured_metric: Cmax (ng/mL)

INSERT INTO results (smiles_code, measured_value) VALUES
  ('O=C(Cc1ccc(-c2ccc(N3CCOCC3)cc2)cn1)NCc1cccc(F)c1', 426);

* * *

# assay_info: plasma and brain exposure after single oral dose
# Assay type: in vivo, Male CD-1 Mice
# study_conditions: male, CD-1, mouse; Plasma; single oral dose of 10 mg/kg
measured_metric: AUC(0-t) (ng·h/mL)

INSERT INTO results (smiles_code, measured_metric, measured_value) VALUES
  ('O=C(Cc1ccc(-c2ccc(N3CCOCC3)cc2)cn1)NCc1cccc(F)c1', 'AUC(0-t)', 863);

* * *

# Tested on: SK-N-FI
# assay_info: brain tumor cell line growth inhibition, SK-N-FI
# Assay type: cell-based
# study_conditions: Homo sapiens, neuroblastoma
measured_metric: IC50 (nM)

INSERT INTO assay_data (smiles_code, measured_value) VALUES
  ('O=C(Cc1ccc(-c2ccc(OCCN3CCOCC3)cc2)cn1)NCc1ccccc1', 1.7),
  ('O=C(Cc1ccc(-c2ccc(N3CCOCC3)cc2)cn1)NCc1cccc(F)c1', 0.46);

* * *

# assay_info: plasma and brain exposure after single oral dose
# Type: in vivo, Male CD-1 Mice
# study_conditions: male, CD-1, mouse, plasma, po, 10 mg/kg, PO 10 mg/kg (Group 3); 1 hr; read-out: Plasma Concentrations, Mean
measured_metric: concentration at 1 h (ng/mL)

INSERT INTO results (compound, measured_metric, measured_value) VALUES
  ('O=C(Cc1ccc(-c2ccc(N3CCOCC3)cc2)cn1)NCc1cccc(F)c1 [Compound 76]', 'concentration at 1 h', 426);

* * *

# assay_info: plasma and brain exposure after single oral dose
# Format: in vivo, Male CD-1 Mice
# study_conditions: male, CD-1, mouse; Brain; single oral dose of 10 mg/kg
measured_metric: Cmax (ng/g)

INSERT INTO measurements (compound, measured_value) VALUES
  ('O=C(Cc1ccc(-c2ccc(N3CCOCC3)cc2)cn1)NCc1cccc(F)c1 [Compound 76]', 279);

* * *

# assay_info: plasma and brain exposure after single oral dose
# Type: in vivo, Male CD-1 Mice
# study_conditions: male, CD-1, mouse, brain, po, 50 mg/kg, PO 50 mg/kg (Group 4); 5 hr; read-out: Brain Concentrations, Mean
# Method: […] The concentration of Compound 76 was measured in plasma and in brain tissue homogenates. Plasma concentrations were measured in mice after oral administration. All doses were formulated in purified water. Four groups of male CD-1 mice were dosed after an overnight fast and fed 4 hours post-dose. Dosing was as follows: Protein was precipitated with 0.25 mL acetonitrile for plasma, 0.25 mL for brain. […] The limit of quantitation was 1 ng/mL using a 50 μL aliquot for plasma and a 504 aliquot for brain. […]
measured_metric: concentration at 5 h

INSERT INTO measurements (molecule, measured_metric, measured_value) VALUES
  ('O=C(Cc1ccc(-c2ccc(N3CCOCC3)cc2)cn1)NCc1cccc(F)c1 [Compound 76]', 'concentration at 5 h', '207 ng/g');

* * *

# assay_info: plasma and brain exposure after single oral dose
# Type: in vivo, Male CD-1 Mice
# study_conditions: male, CD-1, mouse, po; Plasma; single dose of 50 mg/kg (Group 4)
measured_metric: AUC(0-t) (ng·h/mL)

INSERT INTO measurements (smiles_code, unit_info, measured_value) VALUES
  ('O=C(Cc1ccc(-c2ccc(N3CCOCC3)cc2)cn1)NCc1cccc(F)c1', 'ng·h/mL', 5440);

* * *

# assay_info: plasma and brain exposure after single oral dose
# Type: in vivo, Male CD-1 Mice
# study_conditions: male, CD-1, mouse; Plasma; single oral dose of 10 mg/kg
measured_metric: Tmax (h)

INSERT INTO measurements (smiles_code, measured_metric, measured_value) VALUES
  ('O=C(Cc1ccc(-c2ccc(N3CCOCC3)cc2)cn1)NCc1cccc(F)c1', 'Tmax', 1);

* * *

# assay_info: plasma and brain exposure after single oral dose
# Type: in vivo, Male CD-1 Mice
# study_conditions: male, CD-1, mouse; Brain; single oral dose of 10 mg/kg
measured_metric: Tmax

INSERT INTO assay_data (smiles_code, measured_metric, measured_value) VALUES
  ('O=C(Cc1ccc(-c2ccc(N3CCOCC3)cc2)cn1)NCc1cccc(F)c1', 'Tmax', '1 h');

* * *

# assay_info: plasma and brain exposure after single oral dose
# Format: in vivo, Male CD-1 Mice
# study_conditions: male, CD-1, mouse, plasma, po, 50 mg/kg, PO 50 mg/kg (Group 4); 5 hr; read-out: Plasma Concentrations, Mean
measured_metric: concentration at 5 h (ng/mL)

INSERT INTO assay_data (smiles_code, measured_value) VALUES
  ('O=C(Cc1ccc(-c2ccc(N3CCOCC3)cc2)cn1)NCc1cccc(F)c1', 230);

* * *

# assay_info: plasma and brain exposure after single oral dose
# Assay type: in vivo, Male CD-1 Mice
# study_conditions: male, CD-1, mouse, plasma, po, 10 mg/kg, PO 10 mg/kg (Group 3); 5 hr; read-out: Plasma Concentrations, Mean
# Experimental: […] The concentration of Compound 76 was measured in plasma and in brain tissue homogenates. Plasma concentrations were measured in mice after oral administration. All doses were formulated in purified water. Four groups of male CD-1 mice were dosed after an overnight fast and fed 4 hours post-dose. Dosing was as follows: Protein was precipitated with 0.25 mL acetonitrile for plasma, 0.25 mL for brain. […] The limit of quantitation was 1 ng/mL using a 50 μL aliquot for plasma and a 504 aliquot for brain. […]
measured_metric: concentration at 5 h

INSERT INTO assay_data (smiles_code, measured_metric, measured_value) VALUES
  ('O=C(Cc1ccc(-c2ccc(N3CCOCC3)cc2)cn1)NCc1cccc(F)c1', 'concentration at 5 h', '40 ng/mL');

Reference source for all entries: patent US8748423B2
